Target: recombinant human Meningioma Expressed Antigen 5 (MGEA5), also referred to as O-GlcNAcase (OGA) (Homo sapiens, UniProt O60502)
Construct: Full length OGA enzyme was purchased at OriGene (cat #TP322411); purchased OriGene TP322411
Sequence (O60502 whole entry): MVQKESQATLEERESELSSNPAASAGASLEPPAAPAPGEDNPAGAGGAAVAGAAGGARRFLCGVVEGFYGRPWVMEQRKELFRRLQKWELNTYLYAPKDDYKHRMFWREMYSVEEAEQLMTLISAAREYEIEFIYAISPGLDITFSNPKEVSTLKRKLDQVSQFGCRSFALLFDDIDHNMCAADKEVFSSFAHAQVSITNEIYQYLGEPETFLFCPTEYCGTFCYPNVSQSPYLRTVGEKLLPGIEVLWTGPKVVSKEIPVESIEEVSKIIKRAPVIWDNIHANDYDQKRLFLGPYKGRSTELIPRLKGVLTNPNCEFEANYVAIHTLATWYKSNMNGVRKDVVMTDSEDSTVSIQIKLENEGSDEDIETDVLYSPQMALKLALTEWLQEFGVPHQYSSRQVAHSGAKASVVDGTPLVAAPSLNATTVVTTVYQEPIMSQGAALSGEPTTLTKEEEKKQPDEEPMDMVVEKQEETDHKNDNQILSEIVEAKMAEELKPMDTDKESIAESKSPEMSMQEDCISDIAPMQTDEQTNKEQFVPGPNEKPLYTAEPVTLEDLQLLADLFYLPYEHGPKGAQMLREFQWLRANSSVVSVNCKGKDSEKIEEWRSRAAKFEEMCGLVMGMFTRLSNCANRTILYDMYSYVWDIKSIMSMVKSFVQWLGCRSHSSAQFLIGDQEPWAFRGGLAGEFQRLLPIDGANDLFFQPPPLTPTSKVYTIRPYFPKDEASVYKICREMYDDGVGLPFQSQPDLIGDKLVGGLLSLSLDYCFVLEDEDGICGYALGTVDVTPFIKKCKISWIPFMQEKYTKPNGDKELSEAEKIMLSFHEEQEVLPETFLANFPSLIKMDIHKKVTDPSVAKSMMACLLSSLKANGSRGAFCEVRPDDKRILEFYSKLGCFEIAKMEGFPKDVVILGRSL
Assay: OGA biochemical assay (inhibition of FM-GlcNAc hydrolysis, fluorescence)
Details: read-out: Enzymatic Emax (%)

Compound: Cc1ccc(OC2CCN(C(C)c3nc4c(cc3F)OCCO4)CC2)nc1 (stereo not shown) [Compound 165]
Emax (%): 94

Compound: Cc1cncc(OC2CCN(C(C)c3ccc4c(n3)OCCO4)CC2)n1 (stereo not shown) [Compound 76]
Emax (%): 99

Compound: Cc1ncc(OC2CCN(C(C)c3nc4c(cc3F)OCCO4)CC2)cn1.Cl (stereo not shown) [Compound 91]
Emax (%): 105

Compound: Cc1cc(OCC2CCN(C(C)c3ccc4c(n3)OCCO4)CC2)cc(C)n1 (stereo not shown) [Compound 75]
Emax (%): 99
